pKi: −log10 of the molar value. Where a name gives a salt, the structure may show the parent alone.
// values below are pKi; system is human 5HT2A receptor (Homo sapiens, UniProt P28223)
Sequence (P28223 whole entry): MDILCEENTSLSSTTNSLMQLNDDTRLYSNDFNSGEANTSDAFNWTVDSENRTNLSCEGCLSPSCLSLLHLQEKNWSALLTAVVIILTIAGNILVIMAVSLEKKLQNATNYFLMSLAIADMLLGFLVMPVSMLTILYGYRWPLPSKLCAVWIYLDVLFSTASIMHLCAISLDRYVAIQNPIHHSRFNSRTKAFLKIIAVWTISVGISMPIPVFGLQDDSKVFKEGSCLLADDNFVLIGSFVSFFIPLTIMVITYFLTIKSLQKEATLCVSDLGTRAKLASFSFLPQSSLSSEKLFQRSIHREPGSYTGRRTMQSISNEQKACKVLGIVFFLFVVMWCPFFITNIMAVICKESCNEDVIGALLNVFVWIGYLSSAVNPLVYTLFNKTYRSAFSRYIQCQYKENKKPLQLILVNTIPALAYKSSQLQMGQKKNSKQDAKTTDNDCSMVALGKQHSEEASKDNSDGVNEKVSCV
test_readout: pKi

* CN1CCC(N(Cc2cc(-c3ccc4[nH]ccc4c3)ccc2F)C(=O)c2cccs2)CC1 [Example 29] | 9.15
* CN(C)CCN(Cc1cncc(-c2ccc3[nH]ccc3c2)c1)C(=O)c1ccc(F)cc1 [Example 74, trifluoroacetate] | 8.98
* O=C(c1ccc(F)cc1)N(CCN1CCCC1)Cc1cc(-c2ccc3[nH]c(=O)oc3c2)ccc1F [Example 21] | 9.59
* CN(C)CCN(Cc1ccccc1)Cc1cccc(-c2ccc3[nH]c(=O)n(C)c(=O)c3c2)c1 [Example 4] | 7.47
* CCN1CCC[C@H]1CN(Cc1ccc(F)cc1)Cc1cc(-c2ccc3[nH]nnc3c2)ccc1F [Example 87, hydrochloride] | 7.85
* CCN1CCC[C@@H]1CN(Cc1cc(-c2ccc3[nH]c(=O)oc3c2)ccc1F)C(=O)c1ccc(F)cc1 [Example 31] | 9.04
* CN(C)CCN(Cc1ccc(F)cc1)Cc1cncc(-c2ccc3[nH]c(=O)oc3c2)c1 [Example 48] | 9.22
* CN(C)CCCN(Cc1ccccc1)Cc1cccc(-c2ccc3[nH]cnc3c2)c1 [Example 19] | 7.12
* CN(C)CCCN(Cc1cccc(-c2ccc3[nH]c(=O)sc3c2)c1)C(=O)c1ccccc1 [Example 36] | 8.39
* O=C(c1cccs1)N(CCN1CCCC1)Cc1cc(-c2ccc3[nH]nnc3c2)ccc1F [Example 56] | 8.19
* CN1CCN(Cc2cc(-c3ccc4[nH]ccc4c3)ccc2F)C(c2ccc(C(F)(F)F)cc2)C1 (stereo not shown) [Example 15] | 7.86
* CN(C)CCN(Cc1cc(-c2ccc3[nH]ccc3c2)ccc1F)C(=O)c1ccc(F)cc1 [Example 26] | 9.17
* O=C(c1ccc(F)cc1)N(Cc1cc(-c2ccc3[nH]c(=O)oc3c2)ccc1F)[C@H]1CN2CCC1CC2 [Example 79] | 9.21
* CN1C2CCC1CC(N(Cc1cc(-c3ccc4[nH]ncc4c3)ccc1F)C(=O)c1ccc(F)cc1)C2 (stereo not shown) [Example 58] | 8.91
* CN(C)CCN(Cc1ccccc1)Cc1cccc(-c2ccc3[nH]cnc3c2)c1 [Example 18] | 7.13
* CN1CCC(N(Cc2cc(-c3ccc4[nH]ccc4c3)ccc2F)C(=O)c2ccc(F)cc2)CC1 [Example 34] | 8.90

----------
# system: human 5HT2A receptor (Homo sapiens, UniProt P28223)
# Construct: expressed in transfected cells
# method_summary: Receptor Binding Assay, 5HT2A ([3H]N-methyl spiperone)
# condition_set: BHK cells expressing human 5HT2A receptor, 2.5 nM [3H]N-methyl spiperone, 37° C.
pKi: −log10 of the molar value.
test_readout: pKi

- CN1CCC(N(Cc2ccc(F)cc2)Cc2cc(-c3ccc4[nH]c(=O)oc4c3)co2)CC1: 8.96
- CN(C)CCN(Cc1ccccc1)Cc1cccc(-c2ccc3[nH]c(=O)oc3c2)c1.Cl: 9.05
- CNCCN(Cc1ccc(F)cc1)Cc1cc(-c2ccc3[nH]ncc3c2)ccc1F: 9.09
- CN(C)CCN(Cc1cccc(-c2ccc3[nH]c(=O)oc3c2)c1)C(=O)c1ccccc1: 9.25
- O=C(c1ccc(F)cc1)N(CCN1CCCC1)Cc1cccc(-c2ccc3[nH]nnc3c2)c1: 9.05
- Fc1ccc([C@H]2CNCCN2Cc2cc(-c3ccc4[nH]ncc4c3)ccc2F)cc1: 9.21
- CN1CCC(N(Cc2ccc(F)cc2)Cc2cc(-c3ccc4[nH]c(=O)oc4c3)ccc2F)CC1: 9.00
- CN1CCCC(N(Cc2cc(-c3ccc4[nH]ncc4c3)ccc2F)C(=O)c2ccc(F)cc2)C1 (stereo not drawn): 9.22
- O=C(c1ccc(F)cc1)N(CCCN1CCCC1)Cc1cc(-c2ccc3[nH]ncc3c2)ccc1F: 9.22

----------
# system: 5HT2A receptor site (Mus musculus)
# Construct: from tissue; host or cells: live male mice (whole animal)
# Sequence (P35363 whole entry): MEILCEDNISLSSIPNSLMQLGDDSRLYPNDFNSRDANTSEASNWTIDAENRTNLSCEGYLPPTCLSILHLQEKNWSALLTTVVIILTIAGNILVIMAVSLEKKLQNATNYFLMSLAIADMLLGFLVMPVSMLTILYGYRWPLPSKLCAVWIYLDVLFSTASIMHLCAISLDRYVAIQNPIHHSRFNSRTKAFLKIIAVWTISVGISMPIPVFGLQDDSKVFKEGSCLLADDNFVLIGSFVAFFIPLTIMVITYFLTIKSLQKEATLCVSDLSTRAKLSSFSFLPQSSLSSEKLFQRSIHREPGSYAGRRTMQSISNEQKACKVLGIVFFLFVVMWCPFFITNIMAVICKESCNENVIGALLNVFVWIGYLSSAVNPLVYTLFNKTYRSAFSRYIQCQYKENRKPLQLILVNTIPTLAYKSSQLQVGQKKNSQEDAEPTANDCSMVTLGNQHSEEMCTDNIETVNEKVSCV
# method_summary: Head Twitch Assay (5-MeODMT induced head twitch)
# Type: in vivo
# condition_set: mouse; sc; dose blocking 5-MeODMT (30 mg/kg i.p.) head twitch in 50% of male mice
# Procedure: This Example 177 illustrates the study of efficacy of the compounds of this invention at the 5HT2A receptor site in animal models. 5-MeODMT (5-Methoxy-N,N-dimethyltryptamine) Inhibition: Groups of male mice are administered test compounds at selected doses. […]
test_readout: ED50

* CN(C)CCN(Cc1ccccc1)Cc1cccc(-c2ccc3[nH]c(=O)oc3c2)c1.Cl | < 1 mg/kg
* CN1CCN(Cc2cc(-c3ccc4[nH]ccc4c3)co2)[C@@H](c2ccc(F)cc2)C1.O=C(O)C(F)(F)F | ~3 mg/kg
* CC(=O)O.CN1CCN(Cc2cc(-c3ccc4[nH]c(=O)oc4c3)co2)[C@@H](c2ccc(F)cc2)C1 | 0.5 mg/kg
* O=C(c1ccc(F)cc1)N(CCN1CCCC1)Cc1cc(-c2ccc3[nH]c(=O)oc3c2)ccc1F | < 3 mg/kg
* CC(=O)O.CN1CCN(Cc2cncc(-c3ccc4[nH]c(=O)oc4c3)c2)[C@@H](c2ccc(F)cc2)C1 | 0.49 mg/kg
* Fc1ccc(-c2ccc3[nH]ncc3c2)cc1CN1CCNCC1c1cccs1 (stereo not drawn) | ~3 mg/kg

Values from patent US7625889B2
